Assay Readout: melting point

Here's what some known entries look like.
[[record]]
compound = "N#Cc1nn(-c2c(Cl)cc(C(F)(F)F)cc2Cl)c(N)c1-c1ccc(SC(F)(F)F)s1"
observed_result = "162 to 163 °C"

[[record]]
compound = "N#Cc1nn(-c2c(Cl)cc(C(F)(F)F)cc2Cl)c(N)c1-c1ccsc1"
observed_result = "210 to 212 °C"

[[record]]
compound = "N#Cc1nn(-c2c(Cl)cc(C(F)(F)F)cc2Cl)c(N)c1C1CC1(Br)Br (centres unmarked)"
observed_result = "178 to 179 °C"

[[record]]
compound = "N#Cc1nn(-c2c(Cl)cc(C(F)(F)F)cc2Cl)c(N)c1-c1ccoc1[S+]([O-])C(F)(F)F (centres unmarked)"
observed_result = "141 to 142 °C"


Q: # melting point lookup, item `N#Cc1nn(-c2c(Cl)cc(C(F)(F)F)cc2Cl)c(N)c1-c1ccc(F)cc1`
Result: 222 to 223 °C
